target-desc: Substance-K receptor (Homo sapiens, UniProt P21452)
Sequence (P21452 whole entry): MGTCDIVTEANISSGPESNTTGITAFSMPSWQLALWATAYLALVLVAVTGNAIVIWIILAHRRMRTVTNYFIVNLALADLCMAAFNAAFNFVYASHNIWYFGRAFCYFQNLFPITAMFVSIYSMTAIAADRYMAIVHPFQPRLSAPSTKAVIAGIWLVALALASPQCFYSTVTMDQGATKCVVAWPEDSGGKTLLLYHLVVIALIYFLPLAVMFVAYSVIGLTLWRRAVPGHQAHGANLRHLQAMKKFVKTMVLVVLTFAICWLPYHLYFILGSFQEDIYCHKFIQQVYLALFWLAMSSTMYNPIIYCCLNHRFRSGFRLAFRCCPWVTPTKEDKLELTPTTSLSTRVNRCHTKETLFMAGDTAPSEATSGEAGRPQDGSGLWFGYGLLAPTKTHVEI
assay-details: Binding affinity against recombinant human tachykinin receptor 2 in CHO cells using [3H]-NKA as radioligand
pKi by entry:
Lab note — pKi values are minus log10 of concentrations in M.

Take a look at these entries with their results.
CO/N=C(\CN(C)C(=O)c1cc(Cl)cc(Cl)c1)[C@H](CCN1CCC(N2CCCN(CC(=O)OCc3ccccc3)C2=O)CC1)c1ccc(Cl)c(Cl)c1 ... 8.92
CO/N=C(\CN(C)C(=O)c1cc(Cl)cc(Cl)c1)[C@H](CCN1CCC(N2CCCN(O)C2=O)CC1)c1ccc(Cl)c(Cl)c1 ... 9.15
CCOC(=O)[C@@H](Cc1ccc(O)cc1)N1CCCN(C2CCN(CC[C@@H](/C(CN(C)C(=O)c3cc(Cl)cc(Cl)c3)=N/OC)c3ccc(Cl)c(Cl)c3)CC2)C1=O ... 8.92
CO/N=C(\CN(C)C(=O)c1cc(Cl)cc(Cl)c1)[C@H](CCN1CCC(N2CCCN(Cc3ccsc3)C2=O)CC1)c1ccc(Cl)c(Cl)c1 ... 8.92
CO/N=C(\CN(C)C(=O)c1cc(Cl)cc(Cl)c1)[C@H](CCN1CCC(N2CCCN(CC(=N)NO)C2=O)CC1)c1ccc(Cl)c(Cl)c1 ... 9.10
CNC(=O)CN1CCCN(C2CCN(CC[C@@H](/C(CN(C)C(=O)c3cc(Cl)cc(Cl)c3)=N/OC)c3ccc(Cl)c(Cl)c3)CC2)C1=O ... 8.92

Next compound, pKi to be filled in.
Query "CO/N=C(\CN(C)C(=O)c1cc(Cl)cc(Cl)c1)[C@H](CCN1CCC(N2CCCN(C(C)C)C2=O)CC1)c1ccc(Cl)c(Cl)c1" on Substance-K receptor (Homo sapiens, UniProt P21452); pKi returned: 9.10
